Data origin, for the record: PubChem BioAssay AID540252

Exercise: state measured IC50 for each of the compounds provided.
# measurement-target: glucose-6-phosphate dehydrogenase-6-phosphogluconolactonase (Plasmodium falciparum 3D7)
# measurement-protocol: inhibition of P. falciparum G6PD activity – biochemical, end-point NADPH detection, orthogonal assay, dose response (AID 540252)
# measurement-context: purified PfG6PD enzyme, NADPH direct detection
Activity calls are given as the source filed them. No rule for the calls is given here.

Query string: Specify reported IC50 for the compound shown: CCN(CC)c1ccc(C(=C2C=CC(=[N+](CC)CC)C=C2)c2ccc(N(CC)CC)cc2)cc1
Result string: 39.6 µM

Query string: Specify reported IC50 for the compound shown: Cc1[nH]c(=S)c(C#N)c(C)c1CCC#N
Result string: > 80 µM (inactive)

Query string: Specify reported IC50 for the compound shown: CCn1c2ccccc2c2nc3cc(S(=O)(=O)N4CCOCC4)ccc3nc21
Result string: > 80 µM (inactive)

Query string: Specify reported IC50 for the compound shown: CCc1ccccc1N1CSC2=C(C#N)C(c3ccccc3F)CC(=O)N2C1 (stereo unspecified)
Result string: > 80 µM (inactive)

Query string: Specify reported IC50 for the compound shown: COC1(OC)C=CC(=O)C=C1NC(=O)c1ccccc1OC(C)=O
Result string: > 80 µM (inactive)

Query string: Specify reported IC50 for the compound shown: O=C(Cn1sc2ccccc2c1=O)Nc1ccc(Br)cc1
Result string: 22.4 µM

Query string: Specify reported IC50 for the compound shown: CCC1(C)CC(C(N)=S)CCO1 (stereo unspecified)
Result string: > 80 µM (inactive)

Query string: Specify reported IC50 for the compound shown: Cc1c(N=C2C=C(Br)C(=O)C(Br)=C2)c(=O)n(-c2ccccc2)n1C
Result string: > 80 µM (inactive)

Query string: Specify reported IC50 for the compound shown: Oc1ccc(NCc2ccccc2OCc2ccccc2)cc1
Result string: > 80 µM (inactive)

Query string: Specify reported IC50 for the compound shown: CN(C)c1ncc(C2=C(Cl)C(=O)C(N3CCCC3)=C(Cl)C2=O)s1
Result string: > 80 µM (inactive)

Query string: Specify reported IC50 for the compound shown: Nc1ccc(S(=O)(=O)c2cc(O)c3ccccc3c2O)cc1
Result string: > 80 µM (inactive)

* * *

# measurement-target: glucose-6-phosphate dehydrogenase-6-phosphogluconolactonase (Plasmodium falciparum 3D7)
# measurement-protocol: inhibition of P. falciparum G6PD activity – biochemical, end-point NADPH detection, orthogonal assay, dose response (AID 540252)
# measurement-context: purified PfG6PD enzyme, NADPH direct detection
Calls of active or inactive are those of the source. How the calls were made is not given here.
A correct response names exactly one class from Y = active, N = inactive

Query string: Name the outcome recorded for O=[N+]([O-])c1ccc(N/N=C/c2ccc(O)c(O)c2O)c(S(=O)(=O)N2CCOCC2)c1 in the assay.
Result string: Y

Query string: Name the outcome recorded for O=C(Nc1nnc(C2CC2)s1)c1ccc(Cl)nc1 in the assay.
Result string: N

Query string: Name the outcome recorded for CC(C)Nc1ccc(Nc2ccccc2)cc1 in the assay.
Result string: N

Query string: Name the outcome recorded for c1cncc(CNc2ccc3c(c2)OCO3)c1 in the assay.
Result string: N

Query string: Name the outcome recorded for CCOc1ccccc1NS(=O)(=O)c1c(C)noc1C in the assay.
Result string: N

Query string: Name the outcome recorded for NS(=O)(=O)c1ccc(-c2ccc(C=C3C(=O)NC(=O)NC3=O)o2)cc1 in the assay.
Result string: N
